Numbers sourced from ChEMBL document CHEMBL1201862.

- Experimental Target: Dual specificity tyrosine-phosphorylation-regulated kinase 1B (Homo sapiens)
- Sequence (Q9Y463 whole entry): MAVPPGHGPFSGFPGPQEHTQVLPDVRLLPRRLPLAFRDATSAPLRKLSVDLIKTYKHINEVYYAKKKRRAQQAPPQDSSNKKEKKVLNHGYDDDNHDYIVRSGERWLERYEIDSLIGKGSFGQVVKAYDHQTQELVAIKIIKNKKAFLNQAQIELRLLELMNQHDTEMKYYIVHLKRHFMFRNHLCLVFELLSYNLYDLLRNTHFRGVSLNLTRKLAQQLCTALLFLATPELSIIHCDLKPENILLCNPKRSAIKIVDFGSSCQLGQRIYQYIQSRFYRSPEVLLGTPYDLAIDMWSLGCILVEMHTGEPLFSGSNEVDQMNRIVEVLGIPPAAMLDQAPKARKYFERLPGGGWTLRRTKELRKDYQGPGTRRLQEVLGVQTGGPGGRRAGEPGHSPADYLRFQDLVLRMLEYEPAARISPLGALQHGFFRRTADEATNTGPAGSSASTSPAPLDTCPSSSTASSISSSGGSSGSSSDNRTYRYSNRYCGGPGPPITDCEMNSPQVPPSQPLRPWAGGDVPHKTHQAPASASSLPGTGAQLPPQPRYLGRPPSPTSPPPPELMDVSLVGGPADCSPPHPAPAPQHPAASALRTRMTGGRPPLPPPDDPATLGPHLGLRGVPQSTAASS
- Procedure Text: Navigating the Kinome. Panel member name: DYRK1B
- Assay type: functional
Calls of active or inactive are those of the source. No rule for the calls is given here.
Value Type: Ki

Below: 3 compounds and their reported Ki.
Item Smiles: Nc1n[nH]c2nc(Cl)sc12
Ki: 15.8 µM (active)
--
Item Smiles: NC(=O)c1cnn2c(-c3ccccc3)ccnc12
Ki: 15.8 µM (active)
--
Item Smiles: O=C1NS(=O)(=O)c2cccc(Cl)c21
Ki: 50.1 µM (active)

Query compound follows.
Ki measured on CS(=O)(=O)c1cccc(-c2cnn3c(C(N)=O)cc(-c4ccccc4)nc23)c1 = 2 µM (active)
